Recorded values, source patent US20230012273A1.

Molecular target: T1, human SIRPαV1 extracellular domain + His-tag (NP_542970.1) (human, UniProt P78324 31-373)
T1 construct: also called hSIRPαV1; HuSIRPαV1
T1 sequence (P78324 other isoform, or with tags, fused parts or gaps): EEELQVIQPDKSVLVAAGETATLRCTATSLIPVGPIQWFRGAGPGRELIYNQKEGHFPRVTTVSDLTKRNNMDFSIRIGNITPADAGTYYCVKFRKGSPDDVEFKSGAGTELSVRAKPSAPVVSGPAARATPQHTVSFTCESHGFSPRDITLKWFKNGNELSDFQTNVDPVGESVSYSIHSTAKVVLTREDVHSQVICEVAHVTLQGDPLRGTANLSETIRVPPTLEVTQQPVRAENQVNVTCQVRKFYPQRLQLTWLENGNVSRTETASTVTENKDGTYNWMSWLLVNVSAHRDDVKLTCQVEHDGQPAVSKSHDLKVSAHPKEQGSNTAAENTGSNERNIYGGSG
Assay: SPR, Ab captured, ECD-His analyte
Quantity name: pKd
// pKd is dimensionless: -log10 of concentration (M)

Query Antibody E4 (antibody, human IgG1, kappa, L234A L235A, V domains shown) VH: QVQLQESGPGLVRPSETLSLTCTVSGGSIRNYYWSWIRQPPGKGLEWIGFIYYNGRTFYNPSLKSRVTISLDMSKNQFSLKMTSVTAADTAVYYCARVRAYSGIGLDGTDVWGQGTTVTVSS VL: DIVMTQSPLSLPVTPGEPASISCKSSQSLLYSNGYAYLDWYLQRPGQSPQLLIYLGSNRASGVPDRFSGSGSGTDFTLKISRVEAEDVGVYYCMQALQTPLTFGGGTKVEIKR yields pKd of 9.01

# binder Antibody E2 (antibody, human IgG1, kappa, L234A L235A, V domains shown) VH: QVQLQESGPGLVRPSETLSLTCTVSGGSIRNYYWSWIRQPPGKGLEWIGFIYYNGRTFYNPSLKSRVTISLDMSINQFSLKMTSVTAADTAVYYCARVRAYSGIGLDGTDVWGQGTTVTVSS VL: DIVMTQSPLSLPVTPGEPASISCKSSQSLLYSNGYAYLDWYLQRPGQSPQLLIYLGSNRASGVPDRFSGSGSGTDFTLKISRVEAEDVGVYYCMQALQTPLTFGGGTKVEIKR ; its pKd = 9.04

Data point: Antibody E22 (antibody, human IgG1, kappa, L234A L235A, V domains shown) VH: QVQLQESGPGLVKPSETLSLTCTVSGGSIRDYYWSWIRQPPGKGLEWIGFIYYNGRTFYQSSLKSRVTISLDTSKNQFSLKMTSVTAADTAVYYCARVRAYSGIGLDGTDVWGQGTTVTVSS VL: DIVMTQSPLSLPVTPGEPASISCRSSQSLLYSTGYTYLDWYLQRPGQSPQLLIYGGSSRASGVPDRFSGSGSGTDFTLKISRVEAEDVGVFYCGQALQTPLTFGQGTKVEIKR ; pKd = 8.80

pKd reported for this binder Antibody E18 (antibody, human IgG1, kappa, L234A L235A, V domains shown) VH: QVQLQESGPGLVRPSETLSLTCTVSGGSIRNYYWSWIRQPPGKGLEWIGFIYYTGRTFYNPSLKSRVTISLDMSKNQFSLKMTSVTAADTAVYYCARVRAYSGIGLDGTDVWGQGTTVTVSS VL: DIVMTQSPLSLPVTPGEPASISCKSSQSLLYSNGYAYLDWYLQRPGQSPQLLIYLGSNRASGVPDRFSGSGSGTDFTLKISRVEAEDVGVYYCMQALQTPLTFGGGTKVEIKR : 8.61

Sure, the documented pKd for Antibody E21 (antibody, human IgG1, kappa, L234A L235A, V domains shown) VH: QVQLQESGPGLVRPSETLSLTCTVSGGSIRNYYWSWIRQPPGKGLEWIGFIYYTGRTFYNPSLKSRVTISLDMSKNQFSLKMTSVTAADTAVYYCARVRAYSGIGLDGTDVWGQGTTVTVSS VL: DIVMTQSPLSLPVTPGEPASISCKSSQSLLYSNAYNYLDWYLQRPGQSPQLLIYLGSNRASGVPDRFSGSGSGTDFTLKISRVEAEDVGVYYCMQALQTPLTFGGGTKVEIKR is 8.35
